species: Rattus norvegicus; experiment: Open TG-GATES - Regimen: Single; assay type: toxicity, organism-based, Sprague-Dawley; design: regimen Single, gender Male, age 6 weeks; conditions: in vivo, po, 0 mg/kg, 24 h, tissue Plasma, route gavage, dose level Control
Quick reference for DBIL among some molecules
The reply should be a number in mg/dL, with the unit left off.

Sample answers from the record:
CC(=O)Nc1nnc(S(N)(=O)=O)s1 [ACETAZOLAMIDE]
0
COc1cc([C@@H]2c3cc4c(cc3[C@@H](O[C@@H]3O[C@@H]5CO[C@@H](C)O[C@H]5[C@H](O)[C@H]3O)[C@H]3COC(=O)[C@H]23)OCO4)cc(OC)c1O [ETOPOSIDE]
0.03
O=[N+]([O-])c1ccc2c(c1)Cc1ccccc1-2
0.006
C#C[C@]1(O)CC[C@H]2[C@@H]3CCC4=Cc5oncc5C[C@]4(C)[C@H]3CC[C@@]21C
0
CCOC(=O)[C@H](CCc1ccccc1)N[C@@H](C)C(=O)N1CCC[C@H]1C(=O)O
0.012
C1CCC(C(CC2CCCCN2)C2CCCCC2)CC1 (stereo unspecified)
0
Clc1c(Cl)c(Cl)c(Cl)c(Cl)c1Cl
0.06
CN1C(C(=O)Nc2ccccn2)=C(O)c2sc(Cl)cc2S1(=O)=O
0.1

Problem: Answer with the recorded DBIL for the molecule listed here: CN(C)[C@@H]1C(O)=C(C(N)=O)C(=O)[C@@]2(O)C(O)=C3C(=O)c4c(O)cccc4[C@@](C)(O)[C@H]3C[C@@H]12
Result: 0.008

Problem: Specify DBIL for Cc1cccc(Nc2ccccc2C(=O)O)c1C and stop.
Result: 0.1

Problem: Look up and report measured DBIL for this entry: CC(CN1c2ccccc2Sc2ccccc21)N(C)C (stereo unspecified)
Result: 0

* * *

Each entry below lists one item and its recorded AST value.
species: Rattus norvegicus; test: Open TG-GATES - Regimen: Daily Repeat; type: toxicity, organism-based, Sprague-Dawley; design: regimen Daily Repeat, gender Male, age 6 weeks; settings: in vivo, po, 0 mg/kg, […], tissue Plasma, route gavage, dose level Control, time 7 day
Give the value, in units of IU/L, as a plain number.

Consider the worked cases shown below.
CC(CN1c2ccccc2Sc2ccccc21)N(C)C (centres undefined)
73.2
C#C[C@]1(O)CC[C@H]2[C@@H]3CCC4=Cc5oncc5C[C@]4(C)[C@H]3CC[C@@]21C
69.6
CN(C)[C@@H]1C(O)=C(C(N)=O)C(=O)[C@@]2(O)C(O)=C3C(=O)c4c(O)cccc4[C@@](C)(O)[C@H]3C[C@@H]12
63.2
CN1C(C(=O)Nc2ccccn2)=C(O)c2sc(Cl)cc2S1(=O)=O
68.4
CC(=O)Nc1nnc(S(N)(=O)=O)s1 [ACETAZOLAMIDE]
72.6
CCOC(=O)[C@H](CCc1ccccc1)N[C@@H](C)C(=O)N1CCC[C@H]1C(=O)O
62
C1CCC(C(CC2CCCCN2)C2CCCCC2)CC1 (centres undefined)
67.6
Cc1cccc(Nc2ccccc2C(=O)O)c1C
69.4

# input for lookup
Problem: Please supply the value of reported AST for the item Clc1c(Cl)c(Cl)c(Cl)c(Cl)c1Cl
Result: 58.6

* * *

species on record: Rattus norvegicus; assay: Open TG-GATES - Regimen: Single; type: toxicity, organism-based, Sprague-Dawley; set-up: regimen Single, gender Male, age 6 weeks; details: in vivo, po, 0 mg/kg, 9 h, tissue Plasma, route gavage, dose level Control
Entries annotated with measured A/G
In your answer, state the number alone without any accompanying words.

// worked examples, A/G included
Clc1c(Cl)c(Cl)c(Cl)c(Cl)c1Cl [PERCHLOROBENZENE]
1.6
CC(CN1c2ccccc2Sc2ccccc21)N(C)C (stereo unspecified) [PROMETHAZINE]
1.2
CCOC(=O)[C@H](CCc1ccccc1)N[C@@H](C)C(=O)N1CCC[C@H]1C(=O)O
2.1

Problem: Return A/G (reported value) for this compound: Cc1cccc(Nc2ccccc2C(=O)O)c1C [MEFENAMIC ACID]
Result: 1.7

Problem: Tell us which A/G value is on record for CN1C(C(=O)Nc2ccccn2)=C(O)c2sc(Cl)cc2S1(=O)=O [LORNOXICAM]
Result: 1.7

Problem: Could you please provide reported A/G for CN(C)[C@@H]1C(O)=C(C(N)=O)C(=O)[C@@]2(O)C(O)=C3C(=O)c4c(O)cccc4[C@@](C)(O)[C@H]3C[C@@H]12 [TETRACYCLINE] ? Thanks!
Result: 2.3
